# Tested on: 328373-195-R-J1-PDC complex spheroids, viability % test/control
# Procedure summary: Anticancer human tumor 328373-195-R-J1-PDC patient-derived head and neck squamous carcinoma cell line growth inhibition [CLK]
# Experimental conditions: curve of first compound; second compound 1 µM
Quantity measured: IC50

{"Compound": "C#Cc1c(F)ccc2cc(O)cc(-c3ncc4c(N5CC6CCC(C5)N6)nc(OCC56CCCN5CC(F)C6)nc4c3F)c12 (configuration not stated) + CNC(=O)c1ccc(Nc2nc(OC3CCCC3)c3c(-c4ccc5nc(C)oc5c4)c[nH]c3n2)c(OC)c1", "IC50": "< 31.6 nM"}
{"Compound": "COC1C=CCC(C)C(C)S(=O)(=O)NC(=O)c2ccc3c(c2)N(CC2CCC21)CC1(CCCc2cc(Cl)ccc21)CO3 (configuration not stated) + CNC(=O)c1ccc(Nc2nc(OC3CCCC3)c3c(-c4ccc5nc(C)oc5c4)c[nH]c3n2)c(OC)c1", "IC50": "< 31.6 nM"}
{"Compound": "Cn1ncnc1[C@H]1c2n[nH]c(=O)c3cc(F)cc(c23)N[C@@H]1c1ccc(F)cc1 + CNC(=O)c1ccc(Nc2nc(OC3CCCC3)c3c(-c4ccc5nc(C)oc5c4)c[nH]c3n2)c(OC)c1", "IC50": "< 0.316 nM"}
{"Compound": "CCN1CCN(Cc2ccc(Nc3ncc(F)c(-c4cc(F)c5nc(C)n(C(C)C)c5c4)n3)nc2)CC1 + CNC(=O)c1ccc(Nc2nc(OC3CCCC3)c3c(-c4ccc5nc(C)oc5c4)c[nH]c3n2)c(OC)c1", "IC50": "< 3.16 nM"}
{"Compound": "Cn1ncnc1[C@H]1c2n[nH]c(=O)c3cc(F)cc(c23)N[C@@H]1c1ccc(F)cc1 + CN1CCN(c2cc(C(=O)Nc3cc4cc(-c5cnn(C)c5)ccc4cn3)ccn2)CC1", "IC50": "< 0.316 nM"}
{"Compound": "O=C(c1cc(Cc2n[nH]c(=O)c3ccccc23)ccc1F)N1CCN(C(=O)C2CC2)CC1 + CN1CCN(c2cc(C(=O)Nc3cc4cc(-c5cnn(C)c5)ccc4cn3)ccn2)CC1", "IC50": "< 31.6 nM"}

// query Query (compound): COc1cccc2c1C(=O)c1c(O)c3c(c(O)c1C2=O)CC(O)(C(=O)CO)CC3OC1CC(N)C(O)C(C)O1 (configuration not stated) + CN1CCN(c2cc(C(=O)Nc3cc4cc(-c5cnn(C)c5)ccc4cn3)ccn2)CC1 ; field requested: IC50
// result < 31.6 nM

----------
viability, T/C: recorded values
# System: 328373-195-R-J1-PDC complex spheroids, viability % test/control
# Procedure summary: Anticancer human tumor 328373-195-R-J1-PDC cell line growth inhibition [CLK];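 note: spheroids exposed to the agents for 7 days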
# Experimental conditions: second compound 10 µM; first compound 0.03 µM; stronger effect = lower value
Number only, in %; omit the unit.

{"Molecule": "C=CC(=O)Nc1cc(Nc2nccc(-c3cn(C)c4ccccc34)n2)c(OC)cc1N(C)CCN(C)C + CN1CCN(c2cc(C(=O)Nc3cc4cc(-c5cnn(C)c5)ccc4cn3)ccn2)CC1", "viability, T/C, %": 2.14}

// query Query (molecule): C=CC(=O)Nc1cc(Nc2nccc(-c3cn(C)c4ccccc34)n2)c(OC)cc1N(C)CCN(C)C + CNC(=O)c1ccc(Nc2nc(OC3CCCC3)c3c(-c4ccc5nc(C)oc5c4)c[nH]c3n2)c(OC)c1 ; field requested: viability, T/C
// result 11.5

// query # repeat for NC(=O)C(=Cn1cnc(-c2cc(C(F)(F)F)cc(C(F)(F)F)c2)n1)c1cncnc1 + CN1CCN(c2cc(C(=O)Nc3cc4cc(-c5cnn(C)c5)ccc4cn3)ccn2)CC1
// result 0.08

// query # repeat for CC(C)CC(NC(=O)C(Cc1ccccc1)NC(=O)c1cnccn1)B(O)O (stereo unspecified) + CNC(=O)c1ccc(Nc2nc(OC3CCCC3)c3c(-c4ccc5nc(C)oc5c4)c[nH]c3n2)c(OC)c1
// result 0.64

// query # repeat for NC(=O)C(=Cn1cnc(-c2cc(C(F)(F)F)cc(C(F)(F)F)c2)n1)c1cncnc1 + CNC(=O)c1ccc(Nc2nc(OC3CCCC3)c3c(-c4ccc5nc(C)oc5c4)c[nH]c3n2)c(OC)c1
// result 2.16

// query # repeat for CC(C)CC(NC(=O)C(Cc1ccccc1)NC(=O)c1cnccn1)B(O)O (stereo unspecified) + CN1CCN(c2cc(C(=O)Nc3cc4cc(-c5cnn(C)c5)ccc4cn3)ccn2)CC1
// result 0.11

Reference for the values: PubChem BioAssay AID2060620
